# ASSAY NOTES: Organ distribution of lenvatinib in rats with or without liver RT
# Type: in vivo, Sprague-Dawley rats
# ASSAY CONDITIONS: Sprague-Dawley, rat, kidney, po, 3 mg/kg, Concentration of lenvatinib in kidney, 3 mg/kg p.o., 6 h after administration, RT9Gy concurrent with lenvatinib
READOUT KIND: concentration at 6 h (ng/mL)
Answers are plain numbers, in ng/mL.

Lab book: concentration at 6 h of COc1cc2nccc(Oc3ccc(NC(=O)NC4CC4)c(Cl)c3)c2cc1C(N)=O noted as 129

====

# ASSAY NOTES: Organ distribution of lenvatinib in rats with or without liver RT
# Format: in vivo, Sprague-Dawley rats
# ASSAY CONDITIONS: Sprague-Dawley, rat, lung, po, 3 mg/kg, Concentration of lenvatinib in lung, 3 mg/kg p.o., 6 h after administration, RT2Gy concurrent with lenvatinib
READOUT KIND: concentration at 6 h (ng/mL)
Answers are plain numbers, in ng/mL.

Lab book: concentration at 6 h of COc1cc2nccc(Oc3ccc(NC(=O)NC4CC4)c(Cl)c3)c2cc1C(N)=O [lenvatinib, Lenvatinib] noted as 33

====

# ASSAY NOTES: Organ distribution of lenvatinib in rats with or without liver RT
# Format: in vivo, Sprague-Dawley rats
# ASSAY CONDITIONS: Sprague-Dawley, rat, heart, po, 3 mg/kg, Concentration of lenvatinib in heart, 3 mg/kg p.o., 6 h after administration, RT2Gy concurrent with lenvatinib
READOUT KIND: concentration at 6 h (ng/mL)
Give bare numbers, in ng/mL.

Lab book: concentration at 6 h of COc1cc2nccc(Oc3ccc(NC(=O)NC4CC4)c(Cl)c3)c2cc1C(N)=O noted as 32

====

# ASSAY NOTES: Organ distribution of lenvatinib in rats with or without liver RT
# Format: in vivo, Sprague-Dawley rats
# ASSAY CONDITIONS: Sprague-Dawley, rat, lung, po, 3 mg/kg, Concentration of lenvatinib in lung, 3 mg/kg p.o., 6 h after administration, RT9Gy followed by lenvatinib
READOUT KIND: concentration at 6 h (ng/mL)
One number for each entry, in ng/mL.

Lab book: concentration at 6 h of COc1cc2nccc(Oc3ccc(NC(=O)NC4CC4)c(Cl)c3)c2cc1C(N)=O noted as 75

====

# ASSAY NOTES: Organ distribution of lenvatinib in rats with or without liver RT
# Type: in vivo, Sprague-Dawley rats
# ASSAY CONDITIONS: Sprague-Dawley, rat, lung, po, 3 mg/kg, Concentration of lenvatinib in lung, 3 mg/kg p.o., 6 h after administration, RT9Gy concurrent with lenvatinib
READOUT KIND: concentration at 6 h (ng/mL)
Give bare numbers, in ng/mL.

Lab book: concentration at 6 h of COc1cc2nccc(Oc3ccc(NC(=O)NC4CC4)c(Cl)c3)c2cc1C(N)=O [lenvatinib, Lenvatinib] noted as 42

====

# ASSAY NOTES: Organ distribution of lenvatinib in rats with or without liver RT
# Format: in vivo, Sprague-Dawley rats
# ASSAY CONDITIONS: Sprague-Dawley, rat, spleen, po, 3 mg/kg, Concentration of lenvatinib in spleen, 3 mg/kg p.o., 6 h after administration, RT9Gy followed by lenvatinib
READOUT KIND: concentration at 6 h (ng/mL)
Give bare numbers, in ng/mL.

Lab book: concentration at 6 h of COc1cc2nccc(Oc3ccc(NC(=O)NC4CC4)c(Cl)c3)c2cc1C(N)=O [lenvatinib, Lenvatinib] noted as 60

====

# ASSAY NOTES: Organ distribution of lenvatinib in rats with or without liver RT
# Format: in vivo, Sprague-Dawley rats
# ASSAY CONDITIONS: Sprague-Dawley, rat, brain, po, 3 mg/kg, Concentration of lenvatinib in brain, 3 mg/kg p.o., 6 h after administration, RT9Gy concurrent with lenvatinib
READOUT KIND: concentration at 6 h (ng/mL)
Give bare numbers, in ng/mL.

Lab book: concentration at 6 h of COc1cc2nccc(Oc3ccc(NC(=O)NC4CC4)c(Cl)c3)c2cc1C(N)=O [lenvatinib, Lenvatinib] noted as 0

====

# ASSAY NOTES: Organ distribution of lenvatinib in rats with or without liver RT
# Type: in vivo, Sprague-Dawley rats
# ASSAY CONDITIONS: Sprague-Dawley, rat, lung, po, 3 mg/kg, Concentration of lenvatinib in lung, 3 mg/kg p.o., 6 h after administration, lenvatinib only
READOUT KIND: concentration at 6 h (ng/mL)
One number for each entry, in ng/mL.

Lab book: concentration at 6 h of COc1cc2nccc(Oc3ccc(NC(=O)NC4CC4)c(Cl)c3)c2cc1C(N)=O noted as 108

====

# ASSAY NOTES: Organ distribution of lenvatinib in rats with or without liver RT
# Assay type: in vivo, Sprague-Dawley rats
# ASSAY CONDITIONS: Sprague-Dawley, rat, liver, po, 3 mg/kg, Concentration of lenvatinib in liver, 3 mg/kg p.o., 6 h after administration, RT9Gy followed by lenvatinib
# Source text: A freely moving rat model was designed for the current study. The rats were anesthetized and immobilized on a board while undergoing computed tomography to localize the whole liver or a central area measuring 1.5 cm × 1.5 cm for the SBRT technique. For the whole liver field, the cranial margin was set 5 mm from the top of the diaphragm, and the caudal margin was set 5 mm lower than the liver margin. The whole liver was targeted for irradiation. […] Data were collected from six rats per group. […]
READOUT KIND: concentration at 6 h (ng/mL)
Answers are plain numbers, in ng/mL.

Lab book: concentration at 6 h of COc1cc2nccc(Oc3ccc(NC(=O)NC4CC4)c(Cl)c3)c2cc1C(N)=O noted as 161

====

# ASSAY NOTES: Organ distribution of lenvatinib in rats with or without liver RT
# Type: in vivo, Sprague-Dawley rats
# ASSAY CONDITIONS: Sprague-Dawley, rat, brain, po, 3 mg/kg, Concentration of lenvatinib in brain, 3 mg/kg p.o., 6 h after administration, lenvatinib only
READOUT KIND: concentration at 6 h
Provide a numeric answer, followed by its unit.

Lab book: concentration at 6 h of COc1cc2nccc(Oc3ccc(NC(=O)NC4CC4)c(Cl)c3)c2cc1C(N)=O noted as 0 ng/mL

====

# ASSAY NOTES: Organ distribution of lenvatinib in rats with or without liver RT
# Type: in vivo, Sprague-Dawley rats
# ASSAY CONDITIONS: Sprague-Dawley, rat, liver, po, 3 mg/kg, Concentration of lenvatinib in liver, 3 mg/kg p.o., 6 h after administration, RT9Gy concurrent with lenvatinib
READOUT KIND: concentration at 6 h (ng/mL)
One number for each entry, in ng/mL.

Lab book: concentration at 6 h of COc1cc2nccc(Oc3ccc(NC(=O)NC4CC4)c(Cl)c3)c2cc1C(N)=O [lenvatinib, Lenvatinib] noted as 93

====

# ASSAY NOTES: Organ distribution of lenvatinib in rats with or without liver RT
# Assay type: in vivo, Sprague-Dawley rats
# ASSAY CONDITIONS: Sprague-Dawley, rat, lung, po, 3 mg/kg, Concentration of lenvatinib in lung, 3 mg/kg p.o., 6 h after administration, RT2Gy followed by lenvatinib
# Description: A freely moving rat model was designed for the current study. The rats were anesthetized and immobilized on a board while undergoing computed tomography to localize the whole liver or a central area measuring 1.5 cm × 1.5 cm for the SBRT technique. For the whole liver field, the cranial margin was set 5 mm from the top of the diaphragm, and the caudal margin was set 5 mm lower than the liver margin. The whole liver was targeted for irradiation. […] Data were collected from six rats per group. […]
READOUT KIND: concentration at 6 h
Provide a numeric answer, followed by its unit.

Lab book: concentration at 6 h of COc1cc2nccc(Oc3ccc(NC(=O)NC4CC4)c(Cl)c3)c2cc1C(N)=O [lenvatinib, Lenvatinib] noted as 92 ng/mL

====

# ASSAY NOTES: Organ distribution of lenvatinib in rats with or without liver RT
# Format: in vivo, Sprague-Dawley rats
# ASSAY CONDITIONS: Sprague-Dawley, rat, heart, po, 3 mg/kg, Concentration of lenvatinib in heart, 3 mg/kg p.o., 6 h after administration, RT9Gy followed by lenvatinib
READOUT KIND: concentration at 6 h (ng/mL)
Answers are plain numbers, in ng/mL.

Lab book: concentration at 6 h of COc1cc2nccc(Oc3ccc(NC(=O)NC4CC4)c(Cl)c3)c2cc1C(N)=O noted as 78

====

# ASSAY NOTES: Organ distribution of lenvatinib in rats with or without liver RT
# Type: in vivo, Sprague-Dawley rats
# ASSAY CONDITIONS: Sprague-Dawley, rat, brain, po, 3 mg/kg, Concentration of lenvatinib in brain, 3 mg/kg p.o., 6 h after administration, RT9Gy followed by lenvatinib
READOUT KIND: concentration at 6 h (ng/mL)
One number for each entry, in ng/mL.

Lab book: concentration at 6 h of COc1cc2nccc(Oc3ccc(NC(=O)NC4CC4)c(Cl)c3)c2cc1C(N)=O [lenvatinib, Lenvatinib] noted as 0

Origin of measurements: paper PMC8037784
